# System: NCI-H23 lung
# assay.explanation: NCI tumour cell line growth inhibition, 48 h
recorded.endpoint: TGI

Inquiry: Short answer please: TGI, NCI-H23 lung, entry `COc1cc(C(=O)N(Cc2cccnc2)C(=S)N(Cc2cccnc2)C(=O)c2cc(OC)c(OC)c(OC)c2)cc(OC)c1OC`
Reply text: > 100 µM

---
Inquiry: Please tell me: TGI of `Cn1cc(NC(=O)c2cc(NC(=O)CN=C(N)N)cn2C)cc1C(=O)NCCC(=N)N` , system NCI-H23 lung?
Reply text: > 100 µM

Inquiry: Please tell me: TGI of CC1=NNC(N)=N/C1=C\C(Sc1ccc(Cl)cc1)c1ccc([N+](=O)[O-])cc1 (stereo not drawn) , system NCI-H23 lung?
Reply text: > 100 µM
